# Assayed System: T1, human TIM-3 extracellular domain protein with hFc tag (hTIM-3-hFc) (human, UniProt Q8TDQ0 22-200)
# T1 construct: not shown: human IgG Fc fragment (hFc) of the pCpC vector
# T1 sequence: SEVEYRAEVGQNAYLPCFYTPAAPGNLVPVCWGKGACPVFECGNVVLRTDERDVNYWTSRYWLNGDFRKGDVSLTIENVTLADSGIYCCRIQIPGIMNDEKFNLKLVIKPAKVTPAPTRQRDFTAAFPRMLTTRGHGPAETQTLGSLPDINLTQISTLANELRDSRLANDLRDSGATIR
# Measurement Description: ELISA, coated human TIM-3 ECD protein, 0 nM antibody

{"columns": ["Binder", "OD450"],
 "data": [
  ["39E5H1 fully human TIM-3 antibody (human IgG4, kappa) (antibody, V domains shown) VH: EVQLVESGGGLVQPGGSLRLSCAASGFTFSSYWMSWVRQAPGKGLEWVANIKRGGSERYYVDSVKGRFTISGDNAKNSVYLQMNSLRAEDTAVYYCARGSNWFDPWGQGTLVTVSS VL: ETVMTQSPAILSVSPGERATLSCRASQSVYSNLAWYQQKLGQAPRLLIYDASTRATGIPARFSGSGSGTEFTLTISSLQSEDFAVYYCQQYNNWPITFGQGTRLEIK", 0.08],
  ["57F4E5 fully human TIM-3 antibody (human IgG4, kappa) (antibody, V domains shown) VH: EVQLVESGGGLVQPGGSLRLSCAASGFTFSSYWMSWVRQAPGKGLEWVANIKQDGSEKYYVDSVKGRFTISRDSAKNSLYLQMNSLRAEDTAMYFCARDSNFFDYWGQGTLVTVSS VL: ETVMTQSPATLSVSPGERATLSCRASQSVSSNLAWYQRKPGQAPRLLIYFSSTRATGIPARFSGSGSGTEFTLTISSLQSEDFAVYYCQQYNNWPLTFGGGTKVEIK", 0.08],
  ["7A4F10 fully human TIM-3 antibody (human IgG4, kappa) (antibody, V domains shown) VH: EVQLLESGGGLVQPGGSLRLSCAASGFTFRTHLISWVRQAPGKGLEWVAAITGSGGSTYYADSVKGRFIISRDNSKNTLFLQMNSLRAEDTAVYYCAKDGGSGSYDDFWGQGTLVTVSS VL: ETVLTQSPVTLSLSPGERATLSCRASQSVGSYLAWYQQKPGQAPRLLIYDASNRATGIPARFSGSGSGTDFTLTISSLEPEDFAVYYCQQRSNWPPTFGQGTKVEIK", 0.08],
  ["34B6D8 fully human TIM-3 antibody (human IgG4, kappa) (antibody, V domains shown) VH: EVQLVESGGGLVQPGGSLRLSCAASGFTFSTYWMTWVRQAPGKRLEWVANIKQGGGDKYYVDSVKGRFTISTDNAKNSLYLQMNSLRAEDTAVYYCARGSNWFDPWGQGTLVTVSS VL: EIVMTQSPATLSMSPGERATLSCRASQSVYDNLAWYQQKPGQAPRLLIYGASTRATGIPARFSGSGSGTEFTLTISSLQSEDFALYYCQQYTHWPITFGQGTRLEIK", 0.09],
  ["18D2H2 fully human TIM-3 antibody (human IgG4, kappa) (antibody, V domains shown) VH: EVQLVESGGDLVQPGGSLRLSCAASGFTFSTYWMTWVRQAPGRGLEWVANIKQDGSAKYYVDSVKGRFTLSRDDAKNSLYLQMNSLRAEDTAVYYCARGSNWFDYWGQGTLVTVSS VL: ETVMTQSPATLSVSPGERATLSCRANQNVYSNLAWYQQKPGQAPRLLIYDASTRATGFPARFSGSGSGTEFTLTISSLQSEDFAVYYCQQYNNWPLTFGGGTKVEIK", 0.07],
  ["134H3G6 fully human TIM-3 antibody (human IgG4, kappa) (antibody, V domains shown) VH: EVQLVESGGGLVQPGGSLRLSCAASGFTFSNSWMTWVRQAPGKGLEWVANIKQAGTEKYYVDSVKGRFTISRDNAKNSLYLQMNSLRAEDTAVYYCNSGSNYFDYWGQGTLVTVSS VL: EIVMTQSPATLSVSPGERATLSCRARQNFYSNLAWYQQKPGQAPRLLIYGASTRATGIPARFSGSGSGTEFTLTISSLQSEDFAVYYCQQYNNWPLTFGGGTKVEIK", 0.08]
]}

Value source: patent US20220033501A1
